Cited source: patent US20240059689A1

Tested on: HCC1954
Assay: Viability assay, BRCA1 WT cell line HCC1954
Assay type: cell-based
Conditions: Homo sapiens, HCC1954, viability, read-out: HCC1954 rel IC50
IC50 reference

>  <COMPOUND>
CNc1nc(-c2ccccc2C(C)C)nc2c1n(C)c(=N)n2Cc1ccc(-c2nc(C(F)(F)F)cn2C)cc1

>  <IC50>
0.25 to 10 µM

$$$$
>  <COMPOUND>
Cn1c(=N)n(Cc2ccc(-c3nc(C(F)(F)F)cn3C3COC3)cc2)c2nc(-c3ccccc3C(F)(F)F)ncc21

>  <IC50>
≥ 10 µM

$$$$

Prompt: Given the compound CC(C)c1ccccc1-c1nc(-c2ccccc2C(C)C)c2c(n1)n(Cc1ccc(-c3nc(C(F)(F)F)cn3C)cc1)c(=N)n2C (single isomer, unassigned) [Example A-22b] , what is its reported IC50?
Completion: 0.25 to 10 µM

----------
Test system: HCC1954
Experiment: Viability assay, BRCA1 WT cell line HCC1954
Assay type: cell-based
Settings: Homo sapiens, HCC1954, viability, read-out: HCC1954 rel IC50
MEASURED ENDPOINT: IC50

Examples with their reported IC50 follow.
>  <MOLECULE>
Cc1nc(-c2ccccc2Cl)nc2c1n(C)c(=N)n2Cc1ccc(-c2nc(Cl)cn2C)cc1 [Example A-36]

>  <MEASURED ENDPOINT>
IC50

>  <RESULT VALUE>
≥ 10 µM

$$$$
>  <MOLECULE>
Cn1cc(C(F)(F)F)nc1-c1ccc(Cn2c(=N)n(C)c3cnc(-c4ccccc4)nc32)cc1 [Example B-3]

>  <MEASURED ENDPOINT>
IC50

>  <RESULT VALUE>
0.25 to 10 µM

$$$$
>  <MOLECULE>
CC(C)c1ccccc1-c1nc(-c2ccccn2)c2c(n1)n(Cc1ccc(-c3nc(C(F)(F)F)cn3C)cc1)c(=N)n2C [Example A-35]

>  <MEASURED ENDPOINT>
IC50

>  <RESULT VALUE>
0.25 to 10 µM

$$$$
>  <MOLECULE>
Cn1cc(Cl)nc1-c1ccc(Cn2c(=N)n(C)c3c(C#CC4CC4)nc(-c4ccccc4Cl)nc32)cc1 [Example A-46]

>  <MEASURED ENDPOINT>
IC50

>  <RESULT VALUE>
0.25 to 10 µM

$$$$
>  <MOLECULE>
COc1ncnc(C2CC2)c1-c1ncc2c(n1)n(Cc1cc(C)c(-c3nc(C(F)(F)F)cn3C)cc1C)c(=N)n2C [Example T-026]

>  <MEASURED ENDPOINT>
IC50

>  <RESULT VALUE>
≥ 10 µM

$$$$

Prompt: Given the molecule Cc1cc(-c2nc(C(F)(F)F)cn2C)cc(C)c1Cn1c(=N)n(C)c2cnc(-c3ccccc3C(F)(F)F)nc21 [Example T-080] , what is its reported IC50?
Completion: 0.25 to 10 µM

Prompt: Given the molecule COc1cc(-c2nc(C(F)(F)F)cn2C)ccc1Cn1c(=N)n(C)c2cnc(-c3ccccc3C(F)(F)F)nc21 [Example T-029] , what is its reported IC50?
Completion: 0.25 to 10 µM

----------
pIC50 reference
Biological target: UniProt O94782
pIC50: −log10 of the molar value.

>  <COMPOUND>
CC(C)c1c(F)cccc1-c1ncc2c(n1)n(Cc1ccc(-c3nc(C(F)(F)F)cn3C)cc1)c(=N)n2C

>  <TESTED TARGET>
UniProt O94782

>  <pIC50>
> 7.52

$$$$
>  <COMPOUND>
CC(C)c1ccccc1-c1ncc2c(n1)n(Cc1ccc(N3C[C@@H](C(F)(F)F)C[C@H]3C)cc1)c(=N)n2C

>  <TESTED TARGET>
UniProt O94782

>  <pIC50>
5.00 to 7.00

$$$$
>  <COMPOUND>
CC(C)c1ccccc1-c1ncc2c(n1)n(Cc1ccc(N3CCC(C(F)(F)F)C3)cc1)c(=N)n2C (single isomer, unassigned) [Example A-10e]

>  <TESTED TARGET>
UniProt O94782

>  <pIC50>
5.00 to 7.00

$$$$
>  <COMPOUND>
COc1ncccc1-c1ncc2c(n1)n(C1(c3ccc(-c4nc(C(F)(F)F)cn4C)cc3)CC1)c(=N)n2C

>  <TESTED TARGET>
UniProt O94782

>  <pIC50>
5.00 to 7.00

$$$$

Prompt: Given the compound CC(C)c1ccccc1-c1nc(C(N)=O)c2c(n1)n(Cc1ccc(-c3nc(C(F)(F)F)cn3C)cc1)c(=N)n2C , what is its reported pIC50?
Completion: 7.00 to 7.52

Prompt: Given the compound COc1ncnc(C2CC2(F)F)c1-c1ncc2c(n1)n(Cc1ccc(-c3nc(C(F)(F)F)cn3C)cc1)c(=N)n2CC(F)(F)F (stereo not drawn) , what is its reported pIC50?
Completion: 5.00 to 7.00

----------
IC50 reference
Target: USP1-UAF1 (Homo sapiens)
Sequence (O94782 whole entry): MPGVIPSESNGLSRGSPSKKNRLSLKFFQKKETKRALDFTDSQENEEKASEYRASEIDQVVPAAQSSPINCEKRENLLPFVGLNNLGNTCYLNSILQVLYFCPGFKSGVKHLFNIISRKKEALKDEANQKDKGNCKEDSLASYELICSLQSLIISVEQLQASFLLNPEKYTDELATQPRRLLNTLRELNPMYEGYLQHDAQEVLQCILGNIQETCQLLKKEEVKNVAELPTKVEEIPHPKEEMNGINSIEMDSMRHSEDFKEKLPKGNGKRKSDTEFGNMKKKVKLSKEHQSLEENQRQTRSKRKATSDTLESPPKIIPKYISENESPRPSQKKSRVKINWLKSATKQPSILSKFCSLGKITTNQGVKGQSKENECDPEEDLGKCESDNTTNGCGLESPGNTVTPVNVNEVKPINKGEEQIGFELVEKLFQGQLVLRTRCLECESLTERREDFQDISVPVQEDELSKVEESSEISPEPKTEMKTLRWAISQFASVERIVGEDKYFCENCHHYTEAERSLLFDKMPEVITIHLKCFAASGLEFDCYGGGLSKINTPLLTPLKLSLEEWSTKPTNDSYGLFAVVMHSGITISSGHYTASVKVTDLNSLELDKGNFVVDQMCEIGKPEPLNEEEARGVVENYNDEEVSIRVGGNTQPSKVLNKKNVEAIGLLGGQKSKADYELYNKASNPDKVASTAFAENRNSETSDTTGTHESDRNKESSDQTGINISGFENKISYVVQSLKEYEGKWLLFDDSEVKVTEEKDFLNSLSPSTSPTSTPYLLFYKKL
Sequence (Q8TAF3 whole entry partner): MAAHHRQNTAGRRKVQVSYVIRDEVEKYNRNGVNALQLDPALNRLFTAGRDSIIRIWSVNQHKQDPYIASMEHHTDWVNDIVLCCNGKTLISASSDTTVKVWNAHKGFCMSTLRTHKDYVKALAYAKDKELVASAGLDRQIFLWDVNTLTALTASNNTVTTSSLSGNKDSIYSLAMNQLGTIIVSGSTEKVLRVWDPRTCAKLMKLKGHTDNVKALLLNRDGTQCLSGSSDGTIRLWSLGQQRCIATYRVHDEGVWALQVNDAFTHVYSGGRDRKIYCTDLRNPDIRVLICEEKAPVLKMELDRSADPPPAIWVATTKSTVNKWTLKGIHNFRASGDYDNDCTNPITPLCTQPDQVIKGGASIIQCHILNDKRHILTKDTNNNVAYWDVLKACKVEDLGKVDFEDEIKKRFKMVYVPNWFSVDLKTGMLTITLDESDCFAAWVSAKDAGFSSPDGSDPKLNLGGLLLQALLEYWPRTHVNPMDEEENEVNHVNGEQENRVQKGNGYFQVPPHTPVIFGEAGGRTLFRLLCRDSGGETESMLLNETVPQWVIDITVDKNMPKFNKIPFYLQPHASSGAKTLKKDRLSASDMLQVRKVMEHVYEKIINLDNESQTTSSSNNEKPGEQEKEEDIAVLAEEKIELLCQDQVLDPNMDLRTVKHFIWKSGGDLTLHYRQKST

>  <COMPOUND>
Cn1cc(C(F)(F)F)nc1-c1ccc(Cn2c(=N)n(C)c3cnc(-c4c(F)cccc4OC(F)F)nc32)cc1

>  <TESTED TARGET>
USP1-UAF1 (Homo sapiens)

>  <MEASURED ENDPOINT>
IC50

>  <RESULT VALUE>
< 0.03 µM

$$$$
>  <COMPOUND>
Cn1cc(C(F)(F)F)nc1-c1ccc(Cn2c(=N)n(C)c3cnc(-c4c(C5CC5)ncnc4C(F)(F)F)nc32)cc1

>  <TESTED TARGET>
USP1-UAF1 (Homo sapiens)

>  <MEASURED ENDPOINT>
IC50

>  <RESULT VALUE>
0.03 to 0.1 µM

$$$$
>  <COMPOUND>
COc1ncnc(C2CC2)c1-c1ncc2c(n1)n(Cc1ccc(-c3nc(C(F)(F)F)cn3C)cc1)c(=N)n2CC(F)F

>  <TESTED TARGET>
USP1-UAF1 (Homo sapiens)

>  <MEASURED ENDPOINT>
IC50

>  <RESULT VALUE>
0.03 to 0.1 µM

$$$$
>  <COMPOUND>
CC(C)c1ccccc1-c1ncc2c(n1)n(Cc1ccc(-c3nc(C(F)(F)F)cn3C)cc1)c(=N)n2C

>  <TESTED TARGET>
USP1-UAF1 (Homo sapiens)

>  <MEASURED ENDPOINT>
IC50

>  <RESULT VALUE>
< 0.03 µM

$$$$
>  <COMPOUND>
CC(C)n1cc(C(F)(F)F)nc1-c1ccc(Cn2c(=N)n(C)c3cnc(-c4cccnc4OCC(F)(F)F)nc32)cc1

>  <TESTED TARGET>
USP1-UAF1 (Homo sapiens)

>  <MEASURED ENDPOINT>
IC50

>  <RESULT VALUE>
0.1 to 10 µM

$$$$
>  <COMPOUND>
Cn1cc(C(F)(F)F)nc1-c1ccc(Cn2c(=N)n(C)c3cnc(-c4cccnc4C4(C#N)CC4)nc32)cc1

>  <TESTED TARGET>
USP1-UAF1 (Homo sapiens)

>  <MEASURED ENDPOINT>
IC50

>  <RESULT VALUE>
0.1 to 10 µM

$$$$
>  <COMPOUND>
Cn1cc(C(F)(F)F)nc1-c1ccc(Cn2c(=N)n(C)c3cnc(-c4c(OC(F)(F)F)ccnc4C4CC4)nc32)cc1

>  <TESTED TARGET>
USP1-UAF1 (Homo sapiens)

>  <MEASURED ENDPOINT>
IC50

>  <RESULT VALUE>
0.03 to 0.1 µM

$$$$
>  <COMPOUND>
COc1ncnc(C2CC2)c1-c1ncc2c(n1)n(Cc1ccc(-c3nc(C(F)(F)F)cn3C(C)C)cc1)c(=N)n2CC(F)(F)F

>  <TESTED TARGET>
USP1-UAF1 (Homo sapiens)

>  <MEASURED ENDPOINT>
IC50

>  <RESULT VALUE>
0.03 to 0.1 µM

$$$$

Prompt: Given the compound Cc1nc(-c2ccccc2-c2ccccc2Cl)nc2c1n(C)c(=N)n2Cc1ccc(-c2nc(C(F)(F)F)cn2C)cc1 (single isomer, unassigned) [Example A-15c] , what is its reported IC50?
Completion: < 0.03 µM

Prompt: Given the compound COCCn1c(=N)n(Cc2ccc(-c3nc(C(F)(F)F)cn3C)cc2)c2nc(-c3ccccc3C(C)C)ncc21 , what is its reported IC50?
Completion: < 0.03 µM

Prompt: Given the compound Cn1cc(C(F)(F)F)nc1-c1ccc(Cn2c(=N)n(C)c3cnc(-c4ccccc4C(F)(F)F)nc32)cn1 , what is its reported IC50?
Completion: 0.1 to 10 µM

Prompt: Given the compound Cn1cc(C(F)(F)F)nc1-c1ccc(Cn2c(=N)n(CC(F)(F)F)c3cnc(-c4c(C(F)(F)F)cnn4C)nc32)cc1 , what is its reported IC50?
Completion: < 0.03 µM

Prompt: Given the compound COc1ncnc(C2CC2)c1-c1ncc2c(n1)n(Cc1cc(F)c(-c3nc(C(F)(F)F)cn3C)c(F)c1)c(=N)n2CC(F)(F)F , what is its reported IC50?
Completion: 0.03 to 0.1 µM

Prompt: Given the compound COc1nccc(F)c1-c1ncc2c(n1)n(Cc1ccc(-c3nc(C(F)(F)F)cn3C)cc1)c(=N)n2CC(F)(F)F , what is its reported IC50?
Completion: 0.03 to 0.1 µM

Prompt: Given the compound Cn1cc(C(F)(F)F)nc1-c1ccc(Cn2c(=N)n(C)c3cnc(-c4cccnc4OCC(F)(F)F)nc32)cc1 , what is its reported IC50?
Completion: 0.1 to 10 µM

Prompt: Given the compound CCOc1cc(C(F)(F)F)nn1-c1ccc(Cn2c(=N)n(C)c3cnc(-c4c(OC)ncnc4C4CC4)nc32)cc1 , what is its reported IC50?
Completion: < 0.03 µM

Prompt: Given the compound CC(C)c1ccccc1-c1ncc2c(n1)n(Cc1cc(F)c(-c3nc(C(F)(F)F)cn3C)c(F)c1)c(=N)n2C , what is its reported IC50?
Completion: 0.03 to 0.1 µM

Prompt: Given the compound Cn1cc(C(F)(F)F)nc1-c1ccc(Cn2c(=N)n(C)c3cnc(-c4ccccc4[C@H](O)C(F)(F)F)nc32)cc1 (single isomer, unassigned) , what is its reported IC50?
Completion: 0.03 to 0.1 µM

Prompt: Given the compound CC(C)c1ccccc1-c1ncc2c(n1)n(Cc1ccc(-c3nc(C(F)(F)F)c(Br)n3C)cc1)c(=N)n2C , what is its reported IC50?
Completion: < 0.03 µM

Prompt: Given the compound Cn1cc(C(F)(F)F)nc1-c1ccc(Cn2c(=N)n(C)c3cnc(-c4c(Cl)cnn4C)nc32)cc1 , what is its reported IC50?
Completion: 0.03 to 0.1 µM

Prompt: Given the compound Cn1c(=N)n(Cc2ccc(-c3nc(C(F)(F)F)cn3CCO)cc2)c2nc(-c3ccccc3C(F)(F)F)ncc21 , what is its reported IC50?
Completion: 0.1 to 10 µM

Prompt: Given the compound COc1ncnc(C2CC2)c1-c1ncc2c(n1)n(Cc1ccc(-c3nc(C(F)(F)F)cn3C3CCC3)cc1)c(=N)n2CC(F)(F)F , what is its reported IC50?
Completion: < 0.03 µM

Prompt: Given the compound CC(C)c1ccccc1-c1ncc2c(n1)n(C(C)C1CCN(c3nc(Cl)cn3C)CC1)c(=N)n2C (single isomer, unassigned) [Example A-26d] , what is its reported IC50?
Completion: 0.1 to 10 µM

Prompt: Given the compound COc1ccn(-c2ccc(Cn3c(=N)n(C)c4cnc(-c5ccccc5C(C)C)nc43)cc2C)n1 , what is its reported IC50?
Completion: 0.1 to 10 µM

Prompt: Given the compound Cc1cnn(C(C)C)c1-c1ncc2c(n1)n(Cc1ccc(-c3nc(C(F)(F)F)cn3C)cc1)c(=N)n2CC(F)(F)F , what is its reported IC50?
Completion: < 0.03 µM

Prompt: Given the compound CC(C)c1ccccc1-c1ncc2c(n1)n(Cc1ccc(-c3ncc[nH]3)cc1)c(=N)n2C , what is its reported IC50?
Completion: 0.1 to 10 µM
